# test-target: T1, KDM4C double tudor domain (KDM4C-DTD), HaloTag-tagged, wild type (human, UniProt Q9H3R0 877-991)
# T1 chain: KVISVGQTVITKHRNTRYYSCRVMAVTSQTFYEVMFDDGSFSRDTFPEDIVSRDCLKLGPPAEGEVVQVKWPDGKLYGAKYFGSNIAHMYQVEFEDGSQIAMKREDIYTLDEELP
# measurement-protocol: FP
Non-standard residues stand in square brackets, D forms with d. No end group written: not given here. Me2a = asymmetric dimethyl (on arginine); pT = C[C@@H](OP(=O)(O)O)[C@H](N)C(=O)O
recorded-metric: Kd (µM)

Query: Report Kd for RKQLATK(Me3)AAR(Me2a)KSAPAT (also: fluorescein label, end not given here) [H3K23me3R26me2a peptide, fluorescein-labelled]
Reply: 43.7

Query: Report Kd for RKQLATK(Me2)AARKSAPAT (also: fluorescein label, end not given here) [H3K23me2 peptide (dimethylated H3K23), fluorescein-labelled]
Reply: 180

Query: Report Kd for RKQLATK(Me)AARKSAPAT (also: fluorescein label, end not given here) [H3K23me1 peptide (monomethylated H3K23), fluorescein-labelled]
Reply: 520

A: RKQLA[pT]K(Me3)AARKSAPAT (also: fluorescein label, end not given here) [H3T22phK23me3 peptide, fluorescein-labelled]
B: RKQLATK(Me3)AAAKSAPAT (also: fluorescein label, end not given here) [H3K23me3R26A peptide, fluorescein-labelled]
Query: Returns: the argument ( A or B ) having the larger Kd. Respond with the label that goes with your answer.
Reply: A
